- System: FXR:RXRa (NR concentration 270 nM, RXRa partner concentration 90 nM)
- protocolSummary: PBM binding z-score (relative to random genomic background probes); higher = stronger binding; sequences stand for … in GC…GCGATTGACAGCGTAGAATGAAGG
quantityName: PBM binding z-score
Give bare numbers.

# monomerSequence, quantityName, experimentalValue
measured = [
    ("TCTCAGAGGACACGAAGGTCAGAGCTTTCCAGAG", "PBM binding z-score", 1.39),
]

# return PBM binding z-score for each item in the list
1. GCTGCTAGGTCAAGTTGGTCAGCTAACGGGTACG
2. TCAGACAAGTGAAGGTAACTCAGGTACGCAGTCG
3. AGAACGAGGGCAATGTGTTGATAGCACGGGTGGC
4. GCATATAGGGAATACAAGGTGAAAGTCCGATTGT
5. GATGCTAGGTCAACTGATGGTCAGCTAAAGCTCG

[4.8, 0.55, 0.748, 0.23, 3.82]

Dear colleague, could you please provide PBM binding z-score for the sequences listed below?
1. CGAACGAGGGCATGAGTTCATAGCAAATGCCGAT
2. CCAGTCAGGTGAGAAGGTAACTCAGCCTCGATTA
3. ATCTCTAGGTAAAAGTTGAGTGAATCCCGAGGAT
4. CAAACTAGGTCACCGGAAGGTCTAAGTCCGCATG
5. ACAACGAGGGCAATGAGTTGATAGCACGGGTGGC
6. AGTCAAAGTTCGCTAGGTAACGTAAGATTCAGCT

1. 2.26
2. 0.104
3. 0.0929
4. 3.99
5. 0.234
6. 0.102

Hi! Can you tell me PBM binding z-score for each of these sequences?
1. TCATATAGGTAAATGCTAGGTGAAAGTTCGATCT
2. GTACCAAGTTGAATAGGTCGTTGATGAGTAGGCG
3. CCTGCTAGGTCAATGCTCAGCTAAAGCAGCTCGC

1: 1.23; 2: 0.0295; 3: 2.82

I have 7 sequences here; please give me PBM binding z-score for each one.
1. TCTTATAGGTAAATGCTAGGTGAAAGTCCGATCT
2. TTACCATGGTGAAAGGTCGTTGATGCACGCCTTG
3. TCTCGGAGGACACGAAAGGTCAAAGCTCGACATC
4. ACTCGGAGGACAAAGGTCGGAGCTACGCCAGTGA
5. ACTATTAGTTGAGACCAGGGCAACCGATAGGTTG
6. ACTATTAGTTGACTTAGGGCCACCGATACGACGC
7. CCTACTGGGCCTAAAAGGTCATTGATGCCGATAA

1: 1.33; 2: 1.54; 3: 4.46; 4: 0.927; 5: 0.433; 6: 0.803; 7: 4.02

Hi there! I need PBM binding z-score for each item below, if you can.
1. AGAACGAGGCCAATGAGTTGATAGCACGGGTGGC
2. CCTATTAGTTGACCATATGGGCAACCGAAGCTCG
3. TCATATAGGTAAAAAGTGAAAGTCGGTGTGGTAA
4. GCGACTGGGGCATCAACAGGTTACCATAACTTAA

-0.177
0.27
1.13
-0.21

* * *

- System: VDR homodimer (NR concentration 270 nM)
- protocolSummary: PBM binding z-score (relative to random genomic background probes); higher = stronger binding; sequences stand for … in GC…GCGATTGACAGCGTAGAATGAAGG
Answer each item with its documented PBM binding z-score.
Give bare numbers.

Below, each entry is followed by its recorded PBM binding z-score result.
# monomerSequence, tgt, quantityName, experimentalValue
data = [
    ("ACAGACAGGTGATGAAGGTAAGTCAGGCTATCAT", "VDR homodimer (NR concentration 270 nM)", "PBM binding z-score", -0.186),
    ("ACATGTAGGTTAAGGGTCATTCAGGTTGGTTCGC", "VDR homodimer (NR concentration 270 nM)", "PBM binding z-score", 4.91),
    ("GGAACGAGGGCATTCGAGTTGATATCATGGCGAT", "VDR homodimer (NR concentration 270 nM)", "PBM binding z-score", 2.91),
]

Provide reported PBM binding z-score for each item, in the same order as listed.
1. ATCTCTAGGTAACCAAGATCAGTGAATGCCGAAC
2. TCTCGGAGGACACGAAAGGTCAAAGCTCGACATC

1: -0.138; 2: 2.51

Could you tell me PBM binding z-score for each of these sequences? They are listed below.
1. GCTGCTAGGTCAACTGATGGTCTGCTAAAGCTCG
2. CCGAGTACGTTATGGGGCATTCAGGCAACGGTGA
3. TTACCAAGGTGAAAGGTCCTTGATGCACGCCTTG
4. ATCGAACGGTCGAAGGTGAGTATACCCACCCGAA
5. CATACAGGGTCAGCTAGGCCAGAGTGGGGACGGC
6. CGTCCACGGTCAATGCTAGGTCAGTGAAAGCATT
7. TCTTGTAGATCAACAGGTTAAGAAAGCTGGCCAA

1. -0.264
2. 1.4
3. -0.756
4. -0.147
5. 1.59
6. -0.19
7. -0.285

Each sequence below has a reported value. Please supply its PBM binding z-score.
1. ACTTACGGGTCAACGCGGTTATAGCACGCGTATA
2. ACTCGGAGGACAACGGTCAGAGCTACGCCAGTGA
3. TCTATTAGTTGAAGGGCAACTGACGAGTCCGTTT
4. CCAGACAGGTGAGAAGGTAACTCATCCTCGATTA
5. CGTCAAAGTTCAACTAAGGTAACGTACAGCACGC
6. ATCTCTAGGTAAGACACAGTTCAGTGAAGAACGC

1.45
-0.272
1.4
-0.146
4.15
1.37

* * *

- Tested on: PPARg DBDmut IVT, anti-PPARg (DBD mutation: PPARg1 K132A/R137A, NR concentration 270 nM)
- protocolSummary: PBM binding z-score (relative to random genomic background probes); higher = stronger binding; sequences stand for … in GC…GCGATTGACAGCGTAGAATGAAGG
Classification field. Basis: PBM binding z-score. Definitions: lower range: < -0.1; middle range: ≥ -0.1 and < 0.3; upper range: ≥ 0.3

# monomerSequence, tgt, cat
data = [
    ("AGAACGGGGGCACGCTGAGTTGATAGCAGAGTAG", "PPARg DBDmut IVT, anti-PPARg (DBD mutation: PPARg1 K132A/R137A, NR concentration 270 nM)", "upper range"),
    ("AGAATGTGGTTACCAAAGATCAGGGAAACGCTTG", "PPARg DBDmut IVT, anti-PPARg (DBD mutation: PPARg1 K132A/R137A, NR concentration 270 nM)", "middle range"),
    ("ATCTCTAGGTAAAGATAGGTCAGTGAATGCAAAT", "PPARg DBDmut IVT, anti-PPARg (DBD mutation: PPARg1 K132A/R137A, NR concentration 270 nM)", "upper range"),
    ("CGTCCAAGGTCATAGGAGGTCTGTGAAGACAGAT", "PPARg DBDmut IVT, anti-PPARg (DBD mutation: PPARg1 K132A/R137A, NR concentration 270 nM)", "middle range"),
]

Band of `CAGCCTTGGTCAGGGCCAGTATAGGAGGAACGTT` ?
lower range

Tag the class for `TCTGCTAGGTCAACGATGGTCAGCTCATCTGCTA`
lower range

Given `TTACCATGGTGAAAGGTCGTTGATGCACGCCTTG` , name the class its PBM binding z-score places it in.
lower range

Category lookup for the sequence `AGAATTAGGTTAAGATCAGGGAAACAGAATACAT`
upper range

Form field 'band' for `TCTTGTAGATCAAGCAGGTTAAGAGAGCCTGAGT`
middle range

// bin(item) where item = `ACTATTACTTGACTTAGGGCAACCGATACGACGC`
upper range

Which class is correct for the following sequence? `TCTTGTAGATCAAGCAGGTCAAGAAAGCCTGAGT`
middle range

# bin label for `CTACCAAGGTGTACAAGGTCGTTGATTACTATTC`
middle range

Category of `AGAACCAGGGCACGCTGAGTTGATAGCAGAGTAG` , please.
lower range

Tag the class for `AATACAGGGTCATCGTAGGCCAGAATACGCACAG`
upper range

* * *

- Test system: PPARg:RXRa IVT, anti-PPARg (NR concentration 270 nM, RXRa partner concentration 90 nM)
- protocolSummary: PBM binding z-score (relative to random genomic background probes); higher = stronger binding; sequences stand for … in GC…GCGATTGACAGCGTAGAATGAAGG
quantityName: PBM binding z-score
Give bare numbers.

Field: example entries. Status: answers known.
# monomerSequence, PBM binding z-score
records = [
    ("ATATGTAGGTTACATCCGGGTTATTCAGGCTATG", 7.16),
    ("CCTATTAGTTGACCATAATGGCAACCGAAGCTCG", 0.551),
    ("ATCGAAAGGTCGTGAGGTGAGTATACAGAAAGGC", 2.47),
    ("ATCGAAAGGTCGTGAGGTGAGTAAACAGAAAGGC", 2.34),
]

Below are some sequences; for each one, tell me its PBM binding z-score.
1. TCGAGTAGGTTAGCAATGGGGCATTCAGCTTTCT
2. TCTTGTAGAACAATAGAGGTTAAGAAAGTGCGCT

1. 1.46
2. 1.45

Recorded values, source the supplement of paper PMC6555819.
